READOUT TYPE: melting point

Completed entries (count: 5):
chemical_smiles=N#Cc1c(-c2ccc(S(=O)(=O)NC(CF)CF)cn2)n(C2CCC2)c2ccc(F)cc12 reported_value="206 to 208 °C"
chemical_smiles=C[C@H](NS(=O)(=O)c1ccc(-c2c(C#N)c3ccc(CC(F)F)cc3n2C2CCCC2)nc1)C(F)(F)F reported_value="181 to 189 °C"
chemical_smiles=N#Cc1c(-c2ccc(S(=O)(=O)NC(CF)CF)cn2)n(C2CCC2)c2cc(C3CC3)ccc12 reported_value="175 to 178 °C"
chemical_smiles=Cc1cc2c(cc1Cl)c(C(N)=O)c(-c1ccc(S(=O)(=O)N[C@H](C)C(F)(F)F)cn1)n2C1CCC1 reported_value="208 to 210 °C"
chemical_smiles=Cc1ccc2c(C#N)c(-c3ncc(S(=O)(=O)N[C@@H](C)C(F)(F)F)cn3)n(C3CCCC3)c2c1 reported_value="223 to 224 °C"

Report melting point for every entry below.
1. Cc1cc2c(cc1F)c(C(N)=O)c(-c1ccc(S(=O)(=O)NC3(C(F)(F)F)CC3)cn1)n2C1CCCCC1
2. Cc1ccc2c(C#N)c(-c3ncc(S(=O)(=O)NC(C)C)cn3)n(C(C)C)c2c1

A.
273 to 274 °C
205 to 206 °C

====

Kindly supply the reported melting point values for the records listed here.

Parameter requested: melting point. Apply to each item below.
1. Cc1cc2c(cc1Br)c(C#N)c(-c1ccc(S(=O)(=O)N[C@@H](C)C(F)(F)F)cn1)n2C1CCCC1
2. CC[C@H](NS(=O)(=O)c1ccc(-c2c(C#N)c3cc(F)c(C)cc3n2C2CCC2)nc1)C(F)(F)F
3. Cc1ccc2c(c1)c(C#N)c(-c1ncc(S(=O)(=O)N[C@@H](C)C(F)(F)F)cn1)n2CC1CC1
4. Cc1c(OC(F)F)c(F)cc2c(C#N)c(-c3ccc(S(=O)(=O)N[C@@H](C)C(F)(F)F)cn3)n(C3CCC3)c12
5. Cc1ccc2c(C#N)c(-c3ccc(NS(=O)(=O)C4CC4)cn3)n(C3CCC3)c2c1
6. CCc1cc2c(cc1F)c(C#N)c(-c1ccc(S(=O)(=O)N[C@@H](C)C(F)(F)F)cn1)n2-c1cccc(C)c1

A.
1. 204 to 204.5 °C
2. 212 to 217 °C
3. 220 to 223 °C
4. 168 to 174 °C
5. 200 to 205 °C
6. 193 to 198 °C

Q. # query: melting point of entry Cc1ccc2c(C#N)c(-c3ccc(S(=O)(=O)NC(CF)CF)cn3)n(-c3ccccc3)c2c1
A. 181 to 185 °C

====

I'd be grateful if you could share measured melting point for these entries.

Examples with their reported melting point follow.
chemical_smiles=Cc1cc2c(cc1Cl)c(C#N)c(-c1ccc(S(=O)(=O)N[C@@H](C)C(F)(F)F)cn1)n2-c1ccc(F)cn1 reported_value="210 to 212 °C"
chemical_smiles=COc1cc2c(C(N)=O)c(-c3ccc(S(=O)(=O)N[C@H](C)C(F)(F)F)cn3)n(C3CCCC3)c2cc1C reported_value="273 to 275 °C"
chemical_smiles=CCn1c(-c2ncc(S(=O)(=O)NC(C)C)cn2)c(C#N)c2cc(OC(F)F)ccc21 reported_value="180 to 185 °C"
chemical_smiles=C[C@H](NS(=O)(=O)c1cnc(-c2c(C#N)c3ccc(C4CC4)cc3n2C2CCC2)nc1)C1CC1 reported_value="165 to 167 °C"

Could I get melting point for every one of these entries?
1. Cc1cc2c(cc1O)c(C#N)c(-c1ccc(S(=O)(=O)N[C@@H](C)C(F)(F)F)cn1)n2C1CCCC1
2. CCc1cc2c(cc1F)c(C#N)c(-c1cc(C)c(S(=O)(=O)N[C@@H](C)C(F)(F)F)cn1)n2-c1ccccn1
3. CCc1cc2c(cc1F)c(C(N)=O)c(-c1ccc(S(=O)(=O)N[C@@H](C)C(F)(F)F)cn1)n2-c1cccc(F)n1
4. CC(C)NS(=O)(=O)c1cnc(-c2c(C(N)=O)c3ccc(Cl)cc3n2C2CCC2)nc1
5. C[C@H](NS(=O)(=O)c1cnc(-c2c(C#N)c3ccc(OC(F)F)cc3n2C2CCC2)nc1)C(F)(F)F

A.
232 to 233 °C
178 to 183 °C
230 to 233 °C
251 to 253 °C
221 to 223 °C

State recorded melting point for all listed molecules.
1. Cc1cc(-n2c(-c3ccc(S(=O)(=O)N[C@@H](C)C(F)(F)F)cn3)c(C#N)c3cc(F)c(C)cc32)cs1
2. CC(C)NS(=O)(=O)c1cnc(-c2c(C#N)c3ccc(OC(F)(F)F)cc3n2C2CCCC2)nc1
3. C[C@H](NS(=O)(=O)c1cnc(-c2c(C#N)c3ccc(OC(F)F)cc3n2C2CCCC2)nc1)C(F)(F)F
4. Cc1ccc2c(c1)c(C#N)c(-c1ccc(S(=O)(=O)N[C@@H](C)C(F)(F)F)cn1)n2C1CCCC1
5. CC(C)NS(=O)(=O)c1cnc(-c2c(C#N)c3ccc(OC(F)F)cc3n2C2CCCCC2)nc1

A.
210.5 to 215.2 °C
216 to 218 °C
231 to 232 °C
195 to 200 °C
176 to 179 °C

Origin of values: patent US8735414B2
